EXPERIMENTAL_TARGET: T1, HLA class I molecule A02.01
T1 construct: Purified MHC class I complex; also called HLA-A02:01
TEST_DETAILS: competition with radiolabeled reference peptide on purified MHC I
EXPERIMENTAL_READOUT: log10 of IC50 (log10 of the value in nM)
Reminder: these figures are log10 of reported IC50, in nM before transformation.

The cases that follow already have their log10 of IC50 on record.
BINDER	log10 of IC50
ILLPEDTPPL (also called MSH6(+1))	0.83
RLWHLLLQVT (also called MLL2, . . ; LSPH)	1.71
IIEYCCYGDL (also called KIT, T670I)	3.86
YITAFFLLDI (also called NDUFC2 (-KCDT14)(-1))	1.81
SLYIVGFYGA (also called MEK, P124L)	2.59

The value of log10 of IC50 measured for the binder FLLALWECS (also called MSH3(-1)) turned out to be 1.97

The value of log10 of IC50 measured for the binder CLIVSRTLLL (also called MSH3(-1)) turned out to be 3.30

The value of log10 of IC50 measured for the binder KITEQEKDFL (also called PIK3CA, E542K) turned out to be 3.15

Data credit: patent US20220282217A1
